The measurements presented in this section are drawn from the supplement of paper PMC9135407.

- Test system: primary human hepatic stellate cells (donor 1)
- TEST_DETAILS: scaled lipid accumulation score (0 = DMSO-like, 1 = nortriptyline-like); higher = stronger HSC inactivation (lipid re-accumulation), active = hit call of the paper
- SETTINGS: library stock concentration: 3.33 mM; 48 h
In all, about 5,800 compounds went through this assay and about 620 (11%) showed activity.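 How the source made its calls: active = score above a cut-off or among the top three wells of a plate; in these data no inactive exceeds 0.85.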 Shown is part of a subset that was picked to be rich in actives.
Thanks in advance; please answer with one of these: active, inactive

See these solved cases before continuing.
* CN1C2CC(O)CC1C1OC12 (stereo not given) [Scopine] | inactive
* O=C1NC(=O)c2c1c1c3ccccc3n3c1c1c2c2ccccc2n1[C@H]1CC[C@@H]3O1 | inactive
* COC(=O)[C@]1(O)C[C@@H]2O[C@@]1(C)n1c3ccccc3c3c4c(c5c6ccccc6n2c5c31)C(=O)NC4 [K-252a, Nocardiopsis sp.] | inactive
* O=C1C=CC[C@@H]2[C@H]3CCCN4CCC[C@@H](CN12)[C@@H]34 [Sophocarpine] | inactive

INPUT: GET /call?item= C/C(=C\c1csc(C)n1)[C@@H]1C[C@@H]2O[C@]2(C)CCC[C@H](C)[C@H](O)[C@@H](C)C(=O)C(C)(C)[C@@H](O)CC(=O)O1 [Epothilone B (EPO906, Patupilone)] returns the recorded outcome of this test.
OUTPUT: inactive

INPUT: Could you kindly confirm the outcome this assay logged for `O=C(Oc1ccc([N+](=O)[O-])cc1)N1CCC(C(O)(c2ccc3c(c2)OCO3)c2ccc3c(c2)OCO3)CC1` ?
OUTPUT: inactive

INPUT: Fill in: this test's call for O=S(=O)(c1c(O)c(Cl)cc(Cl)c1Cl)c1c(O)c(Cl)cc(Cl)c1Cl [p38 MAP Kinase Inhibitor IV] is ___
OUTPUT: inactive

INPUT: Please indicate how the test categorized Cc1cc2c(C(C)C)c(O)c(O)c(C=O)c2c(O)c1-c1c(C)cc2c(C(C)C)c(O)c(O)c(C=O)c2c1O [Gossypol] .
OUTPUT: inactive

====

- Tested on: primary human hepatic stellate cells (donor 1)
- TEST_DETAILS: scaled lipid accumulation score (0 = DMSO-like, 1 = nortriptyline-like); higher = stronger HSC inactivation (lipid re-accumulation), active = hit call of the paper
- SETTINGS: library stock concentration: 10 mM; 48 h
Counter-ions that a name gives are not always drawn. In all, about 5,800 compounds went through this assay and about 620 (11%) showed activity.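 Rule for the calls: active = score above a cut-off or among the top three wells of a plate; in these data no inactive exceeds 0.85.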 The full list was thinned out, with actives kept by preference.
Answer with one of the outcomes given here: T (active), F (inactive)

Look over these answered cases.
* C=C(C)CN1CC[C@@]23c4c5ccc(O)c4O[C@H]2c2[nH]c4ccccc4c2C[C@]3(O)C1C5 [SDM25N hydrochloride] | F
* Cl.Oc1ccc2c3c1O[C@H]1c4[nH]c5ccccc5c4C[C@@]4(O)C(C2)N(CC2CC2)CCC314 (stereo not given in full) [Naltrindole hydrochloride] | T
* O=C(O)/C=C\C(=O)O.O=C1/C(=C/c2ccccc2)C[C@@]2(O)C3Cc4ccc(O)c5c4[C@@]2(CCN3CC2CC2)[C@H]1O5 [BNTX maleate] | T
* c1ccc(/N=N/c2ccccc2)cc1 [Azobenzene] | F
* CC(=O)O[C@H]1CC[C@@]2(C)C(=CC[C@@H]3[C@@H]2CC[C@]2(C)C(=O)CC[C@@H]32)C1 [Prasterone acetate] | F

INPUT: Please let me know the test result on file for COc1ccc2[nH]cc(CCN)c2c1 [5-Methoxytryptamine] .
OUTPUT: F

INPUT: Recorded call for Ic1ccccc1CNC1C2CCN(CC2)C1C(c1ccccc1)c1ccccc1 [L-703,606 oxalate salt hydrate] ?
OUTPUT: F

INPUT: Give the logged outcome of this assay for the following compound: O=C1/C(=C/c2ccccc2)C[C@@]2(O)[C@H]3Cc4ccc(O)c5c4[C@@]2(CCN3CC2CC2)[C@H]1O5 [BNTX maleate salt hydrate]
OUTPUT: F

INPUT: In this assay, the call recorded for COc1ccc2[nH]cc(CCN)c2c1 [O-Methylserotonin hydrochloride] was what?
OUTPUT: F
